Please find below IC50 data on Fibroblast growth factor receptor 1 (Homo sapiens) compiled from the literature.

Some compounds with known IC50 results, for comparison:
• COc1cc(Nc2ncnc(Nc3ccc(N(C)C)cc3)n2)cc(OC)c1OC = 1010 to 6050 nM
• COCCOc1cc(NC(=O)N2CCCc3cc(CO)c(C=O)nc32)ncc1C#N = > 10000 nM
• CNC(=O)c1coc2cc(Oc3ccnc4cc(-c5cn(C)cn5)ccc34)ccc12 = < 50 nM

Now consider a different compound.
[ask] Quickly give me recorded IC50 for `COc1cc(Nc2ncnc(N(c3ccc(Cl)cc3)c3nc4ccccc4[nH]3)n2)cc(OC)c1OC`
[reply] < 794 nM

---

Several publications report IC50 on UniProtKB P11362; those values are gathered here.

Some entries whose results are on file:
* COc1ccc(Nc2nc3ccccc3n2-c2ncnc(Nc3cc(OC)c(OC)c(OC)c3)n2)cc1OC | > 8.5 µM
* COc1cc(OC)c(Cl)c(-c2ncc3c(-c4ccc5c(c4)CN([C@H]4CC[C@@H](O)CC4)C5=O)n[nH]c3n2)c1Cl | < 0.1 µM
* CCn1cc(-c2c(N)ncc3c2N(C)C(=O)N(c2c(F)c(OC)cc(OC)c2F)C3)cn1 | < 0.1 µM

[ask] For the compound `C=CC(=O)N1CC(Nc2ncc3cc(-c4c(Cl)c(OC)cc(OC)c4Cl)ccc3n2)C1` , report IC50.
[reply] < 0.003 µM

---

Across several studies, compounds have been characterized by their IC50 on Fibroblast growth factor receptor 1 (Homo sapiens); a selection follows.

Would you please look over these solved cases?
- COc1cc(Nc2ncnc(Nc3ccc(C)c(O)c3)n2)cc(OC)c1OC: < 1040 nM
- CCN1CCC(Nc2ccc3c(c2)/C(=C(/c2nc(C)c[nH]2)c2ccc(F)cc2F)C(=O)N3)CC1: 50 to 500 nM
- C=CC(=O)Nc1cccc(OC)c1Nc1ncc2cc(-c3c(Cl)c(OC)cc(OC)c3Cl)c3nccn3c2n1: 50 to 500 nM
- COc1ccc(-c2ccc3c(c2)ncn3-c2cc(NC(C)=O)cc(-c3ccc(F)cc3)c2)cn1: 22 nM
- CCN1CCC(Nc2ccc3c(c2)/C(=C(/c2ncc[nH]2)c2cccc(F)c2F)C(=O)N3)CC1: < 50 nM
- O=C(Nc1ccc(Oc2ncnc3[nH]ncc23)cc1)Nc1ccc(Cl)c(C(F)(F)F)c1: < 10000 nM
- COc1cc(CCc2cnc3[nH]c(-c4ccc(N5CCN(C)CC5=O)cc4)cc3n2)cc(OC)c1: < 100 nM

[ask] Provide the reported IC50 (system: Fibroblast growth factor receptor 1 (Homo sapiens)) for CC(Oc1ccc2[nH]nc(/C=C/c3ccc(CN4CCC(CO)CC4)cc3)c2c1)c1c(Cl)cncc1Cl (centres unmarked)
[reply] ≤ 10 nM

---

pIC50: −log10 of the molar value.
A compilation of pIC50 values for Fibroblast growth factor receptor 1 (Homo sapiens) from the published literature.

[ask] Determine reported pIC50 for `COCCN1CCC(Nc2ccc3c(c2)/C(=C(\c2ccc(C(F)(F)F)nc2)c2ncc[nH]2)C(=O)N3)CC1` ; test system: Fibroblast growth factor receptor 1 (Homo sapiens).
[reply] 6.30 to 7.30

[ask] Enter pIC50 (test system Fibroblast growth factor receptor 1 (Homo sapiens)) for `COc1cc(OC)c(F)c(/C=C/c2cnc(NC(=O)N3CCCc4ccc(C=O)nc43)nc2)c1F`
[reply] 6.00

[ask] Specify pIC50 for `COc1cc(Nc2ncnc(-n3cc(C)c4ccccc43)n2)cc(OC)c1OC` , system Fibroblast growth factor receptor 1 (Homo sapiens).
[reply] < 4.94

[ask] Return reported pIC50 for target or system Fibroblast growth factor receptor 1 (Homo sapiens), item `Cn1cnc(-c2ccc3c(Oc4ccc(NC(=O)N5CC(F)(F)C5)c(Cl)c4F)ccnc3c2)c1` .
[reply] 6.70 to 7.30

---

pIC50: −log10 of the molar value.
Reported pIC50 against Fibroblast growth factor receptor 1 (Homo sapiens), gathered from multiple publications, appears below.

Some compounds with known pIC50 results, for comparison:
* COc1cc(Nc2ncnc(-n3c(NCc4ccc(F)cc4Cl)nc4ccccc43)n2)cc(OC)c1OC | > 6.13
* C[C@@H](Oc1ccc2[nH]nc(/C=C(\F)c3ccc(CNC4CCOCC4)nc3)c2c1)c1ccncc1Cl | 7.30 to 8.00
* COCCOc1ccc(Nc2ncnc(Nc3ccc(C)c(O)c3)n2)cc1OC | 5.22 to 6.00
* COc1cc(OC)c(F)c(-c2ncc3c(-c4ccc5c(c4)CN(C(C)C)C5=O)n[nH]c3n2)c1F | > 7.00
* CCN1CCC(Nc2ccc3c(c2)/C(=C(/c2nc(C)c[nH]2)c2ccc(C(F)(F)F)cc2F)C(=O)N3)CC1 | > 7.30
* COc1cc(CCc2cnc3[nH]c(-c4ccc(N5CCN(C)CC5)cc4)cc3n2)cc(OC)c1 | > 7.00
* COc1cc(OC)c(F)c(-c2ncc3c(-c4ccc5c(c4)CC(C(=O)N4CCN(C)CC4)O5)n[nH]c3n2)c1F (stereo not shown) | > 7.00
* COc1cc2nccc(Oc3ccc(Nc4c(Nc5cccnc5)c(=O)c4=O)c(Cl)c3)c2cc1C(N)=O | 6.00 to 6.70
* C[C@@H](Oc1ccc2[nH]nc(/C=C/c3cccc(CNC4CCOCC4)c3)c2c1)c1c(Cl)cncc1Cl | ≥ 8.00
* COc1cc2nccc(Oc3ccc4c(C(=O)N5CCCC5)coc4c3)c2cc1C(N)=O | 6.00 to 6.70

[ask] Report the value of pIC50 obtained on Fibroblast growth factor receptor 1 (Homo sapiens) for CC(Oc1ccc2[nH]nc(/C=C/c3cc(F)c(CN4CCOCC4)cc3C#N)c2c1)c1c(Cl)cncc1Cl (stereo not shown) .
[reply] 6.00 to 7.30

---

Literature roundup of Fibroblast growth factor receptor 1 (Homo sapiens, UniProt P11362) data, read-out pIC50.
pIC50: −log10 of the molar value.

Here are 8 compounds together with their reported answers.
• C=CC(=O)NCc1cc2c(cn1)CN(c1c(F)c(OC)cc(OC)c1F)C(=O)N2CC1CCN(S(C)(=O)=O)CC1 = < 6.70
• COc1cc2nccc(Oc3ccc(CC(=O)N4CC(F)(F)C4)cc3)c2cc1C(N)=O = 6.00 to 6.70
• CC(Oc1ccc2[nH]nc(/C=C/c3ccc(CN4CCC(O)CC4)cc3)c2c1)c1c(Cl)cncc1Cl (stereo not shown) = ≥ 8.00
• COc1cc2nccc(Oc3ccc4c(C(=O)N5CC(F)(F)C5)coc4c3)c2cc1C(N)=O = 6.00 to 6.70
• CC(C)S(=O)(=O)Nc1cc(-c2ccc(F)cc2F)cc(-n2cnc3cc(-c4cnn(C)c4)ccc32)n1 = 8.77
• COc1cc(Nc2ncnc(-n3c(Nc4ccc5[nH]ccc5c4)nc4ccccc43)n2)cc(OC)c1OC = > 6.10
• COc1cc(OC)c(Cl)c(-c2ncc3c(-c4cnn(C(C)C#N)c4)n[nH]c3n2)c1Cl (stereo not shown) = > 7.00
• CCN(CC)CCNC(=O)c1c[nH]c(/C=C2\C(=O)Nc3cccc(-c4ccc(Br)cc4)c32)c1C = 7.68

[ask] Fetch value of pIC50 on Fibroblast growth factor receptor 1 (Homo sapiens, UniProt P11362) for `Cn1cc(-c2ccc3c(c2)ncn3-c2cc(-c3ccc(F)cc3)cc(NS(C)(=O)=O)n2)cn1` .
[reply] 8.47

[ask] Would you please give the reported pIC50 of `COc1ccc(Nc2ncnc(Nc3ccc(Oc4ccccc4)cc3)n2)cc1OC` with Fibroblast growth factor receptor 1 (Homo sapiens, UniProt P11362)?
[reply] < 4.97

[ask] State pIC50 (Fibroblast growth factor receptor 1 (Homo sapiens, UniProt P11362)) of `CCN1CCC(Nc2ccc3c(c2)/C(=C(/c2nc(C)c[nH]2)c2ccc(Cl)cc2F)C(=O)N3)CC1` .
[reply] > 7.30

[ask] Given `C=CCN(c1ccc(Cl)cc1)c1ncnc(Nc2cc(OC)c(OC)c(OC)c2)n1` , report its pIC50 on Fibroblast growth factor receptor 1 (Homo sapiens, UniProt P11362).
[reply] 5.25 to 6.03

[ask] Name the recorded pIC50 of `CC#CC(=O)N1CCC[C@H](Nc2ncc3cc(-c4c(Cl)c(OC)cc(OC)c4Cl)ccc3n2)C1` , assay system Fibroblast growth factor receptor 1 (Homo sapiens, UniProt P11362).
[reply] 8.15

[ask] Please tell me the measured pIC50 for `CCNC(=O)Nc1ccc(Oc2ccnc3cc(-c4cn(C)cn4)ccc23)c(F)c1Cl` ; system: Fibroblast growth factor receptor 1 (Homo sapiens, UniProt P11362).
[reply] > 7.30

[ask] Would you please give the reported pIC50 of `Cn1cnc(-c2ccc3c(c2)ncn3-c2cc(-c3ccc(F)cc3F)cc(NS(=O)(=O)C3CC3)n2)c1` with Fibroblast growth factor receptor 1 (Homo sapiens, UniProt P11362)?
[reply] 8.89

[ask] Report pIC50 under test system Fibroblast growth factor receptor 1 (Homo sapiens, UniProt P11362) for `COc1cc(OC)c(F)c(N2Cc3cnc(N)c(C)c3N(c3ccccc3F)C2=O)c1F` .
[reply] > 7.00

[ask] Using Fibroblast growth factor receptor 1 (Homo sapiens, UniProt P11362) as the test system, report measured pIC50 of `COc1cc(OC)c(F)c(N2Cc3cnc(NC4CCCCC4)cc3C3(CC3)C2=O)c1F` .
[reply] > 7.00

[ask] Provide pIC50, tested on Fibroblast growth factor receptor 1 (Homo sapiens, UniProt P11362), for `CO[C@H]1CCN(c2cc(NC(=O)N3CCCc4cc(CN5CCN(C)CC5=O)c(C=O)nc43)ncc2C#N)C1` .
[reply] < 5.00

[ask] // output pIC50; input CN(C)CC(C)(O)CNc1cc(NC(=O)N2CCCc3cc(CO)c(C=O)nc32)ncc1C#N (racemic) ; system Fibroblast growth factor receptor 1 (Homo sapiens, UniProt P11362)
[reply] < 5.00

[ask] Specify pIC50 for `CNC(=O)c1cc(C#N)cc(-c2cnn3cc(-c4ccc(C)nc4)c(O[C@H]4CCOC4)nc23)c1` , system Fibroblast growth factor receptor 1 (Homo sapiens, UniProt P11362).
[reply] ≤ 6.70

[ask] Tell me its pIC50 on Fibroblast growth factor receptor 1 (Homo sapiens, UniProt P11362): `Cn1cnc(-c2ccc3c(Oc4ccc(NC(=O)NC5CC5)c(Cl)c4)ccnc3c2)c1`
[reply] > 7.30
